Origin of values: ChEMBL document CHEMBL1201862

# System: RXF 393
# ASSAY_PROCEDURE: NCI tumour cell line growth inhibition, 48 h
Where a name gives a salt, the structure may show the parent alone. The source made the active and inactive calls. Rule as the data show it: active = GI50 up to about 1.1 µM and inactive = higher.
Classes used: t (active), f (inactive)

| MOLECULE | CLASS_ASSIGNMENT |
| --- | --- |
| Cc1cn(C2CC(O)C(COC(=O)NCCC(F)(F)C(F)(F)C(F)(F)C(F)(F)F)O2)c(=O)[nH]c1=O (stereo not drawn) | f |
| COc1cc2c(cc1OC)CC(=O)c1cc(OC)c(OC)cc1/C=C\2 | f |
| O=C(CC(=O)c1ccc([N+](=O)[O-])cc1)C(=O)Nc1nccs1 | f |
| c1ccc(C/C(=N\Nc2nc3ccccc3o2)c2ccccn2)cc1 | t |
| NCCCCN [PUTRESCINE HYDROCHLORIDE] | f |
| CC1CN(C)c2ccccc2N=C1NN (stereo not drawn) | t |
| COC(=O)Nc1nc(=O)c2ccccc2[nH]1 | f |
| O=C1c2c(ccc3c2CCC3)CC12Cc1cc3c(cc1C2)CCC3 | f |
| CC1(C)N=c2c(ncn2Cc2ccccc2)=C(C(N)=O)N1 | f |
| CC1=CC(O)C(C(O)(C(F)(F)F)C(F)(F)F)C(C)(C)C1 (stereo not drawn) | f |
| CN(C(=O)c1cccs1)C(=S)N1CCN(c2ccccc2)CC1 | f |
| COc1ccc(-c2c3ccccc3c(-c3ccc(OC)cc3)c3ccccc23)cc1 | f |
| CN(C)c1ccc(C=C2C(=O)NC(=S)NC2=O)c2ccccc12 | f |
| C=C1C(=O)O[C@H]2C1[C@H](OC(=O)/C(C)=C\COC(C)=O)C[C@]1(CO1)[C@@H]1[C@H](O)[C@H]3O[C@@]3(C)[C@@H]12 (stereo partly drawn) | f |
| COc1ccc(/C=N/NC(=O)c2ccccc2Nc2ccccc2C(=O)N/N=C/c2ccc(OC)cc2)cc1 | f |
| CC(=O)/N=C1/N(/C=C2\C(=O)Oc3ccccc3C2=O)C(=O)/C(=C/c2ccccc2Cl)N1C | f |
| Cc1nc2c(o1)C(=O)c1ccccc1/C2=N\c1ccccc1 | f |
| CC12CC(=O)NN=C1c1ccccc1C2 (stereo not drawn) | f |
| NC(=O)CC(N)C(=O)NC(Cc1ccccc1)C(=O)NC(Cc1ccccc1)NC(=O)C(Cc1c[nH]c2ccccc12)C(=O)O (stereo not drawn) | f |
| Cc1cc(O)c(C(O)c2ccccn2)cc1O (stereo not drawn) | f |
| COC(=O)[C@@H]1C[C@]2(CC=C(C)C)c3ccccc3N(S(=O)(=O)c3ccccc3)[C@@H]2N1C(=O)OC | f |
| NNC(=O)CC(=O)Nc1ccc(C(=O)O)cc1 | f |
| C/C(=N\Nc1ccccc1)C(CN(C)C)C(c1ccccc1)c1c(O)c2ccccc2oc1=O (stereo not drawn) | f |
| CCCCCCCCCC(=O)OCC1(CO)C/C(=C/CC(C(C)C)C(C)C)C(=O)O1 (stereo not drawn) | f |
| Cc1[nH]c2ccccc2c1C(=O)CC1(O)C(=O)Nc2c(Cl)cc(Cl)cc21 (stereo not drawn) | f |
| Cc1noc2c1C(=O)CCC2 | f |
| O=[N+]([O-])c1ccc(C2=Nn3cnnc3SC2)o1 | f |
| O=C1c2ccccc2-c2ccc(O)cc21 | f |
| O=C1OC(=O)C2C3C=CC(C12)C1C2C=CC2C31 (stereo not drawn) | f |
| Cc1nc(N)nc(N)c1CCCCc1ccccc1 | f |
| Cc1cc(Cc2cc(C)c(NC(=O)C(=O)C3C(=O)NC(=S)NC3=O)c(C(C)C)c2)cc(C(C)C)c1NC(=O)C(=O)C1C(=O)NC(=S)NC1=O | f |
| O=C(c1ccccc1)C1OC12C(=O)Nc1c(Cl)cc(Cl)cc12 (stereo not drawn) | f |
| O=C1NC(=O)c2c1n(Cc1ccccc1)c(=O)n2Cc1ccccc1 | f |
| COc1ccc([N+]2=NC(c3ccc([N+](=O)[O-])cc3)=NN(c3ccccc3)C2)cc1 | f |
| N=C(N)NS(=O)(=O)c1ccc(NC(=O)c2cccc3cc4ccccc4nc23)cc1 | f |
| O=C1NC(=S)NC(=O)C1=Cc1ccc[nH]1 | f |
| N#CN1CC[C@@H]2CC3(CCC2C1)OCCO3 (stereo partly drawn) | f |
| O=C(N/N=C(\c1nc2ccc(Cl)cc2nc1O)C(O)c1ccccc1Cl)c1ccncc1 (stereo not drawn) | f |
| COc1ccc2nc(/C(N)=C\C#N)ccc2c1 | f |
| CC1(C)OC(=O)C(c2ccsc2)C(=O)O1 | f |
| O=C(Nc1ccc([N+](=O)[O-])cc1[N+](=O)[O-])C(=O)C(C(=O)c1ccc(Cl)c(Cl)c1)C1OC(=O)c2ccccc21 (stereo not drawn) | f |
| CN(C)CCCc1cccnc1 | f |
| CSC(=S)N/N=C(\C)c1cccc(C)n1 | t |
